Provide the reported Km of each item.
- measurement notes: ATP-PPi exchange assay (amino acid activation)
- Type: biochemical
- condition label: nsAA pAcF
Please give a number only; it is taken to be in µM.

// query What value of Km has been recorded for this entry: pAcFRS.1.t1: pAcFRS variant A167D, R257G, SEQ ID NO: 5 (protein) MDEFEMIKRNTSEIISEEELREVLKKDEKSALIGFEPSGKIHLGHYLQIKKMIDLQNAGFDIIILLADLHAYLNQKGELDEIRKIGDYNKKVFEAMGLKAKYVYGSEFQLDKDYTLNVYRLALKTTLKRARRSMELIAREDENPKVAEVIYPIMQVNGCHYRGVDVDVGGMEQRKIHMLARELLPKKVVCIHNPVLTGLDGEGKMSSSKGNFIAVDDSPEEIRAKIKKAYCPAGVVEGNPIMEIAKYFLEYPLTIKGPEKFGGDLTVNSYEELESLFKNKELHPMRLKNAVAEELIKILEPIRKRL
// result 1680

// query Proceed to pAcFRS.2: pAcFRS variant L65V, A167D, SEQ ID NO: 7 (protein) MDEFEMIKRNTSEIISEEELREVLKKDEKSALIGFEPSGKIHLGHYLQIKKMIDLQNAGFDIIIVLADLHAYLNQKGELDEIRKIGDYNKKVFEAMGLKAKYVYGSEFQLDKDYTLNVYRLALKTTLKRARRSMELIAREDENPKVAEVIYPIMQVNGCHYRGVDVDVGGMEQRKIHMLARELLPKKVVCIHNPVLTGLDGEGKMSSSKGNFIAVDDSPEEIRAKIKKAYCPAGVVEGNPIMEIAKYFLEYPLTIKRPEKFGGDLTVNSYEELESLFKNKELHPMRLKNAVAEELIKILEPIRKRL
// result 3130
